# Test system: Rattus norvegicus
# TEST PROTOCOL: Antiinflammatory activity in Sprague-Dawley rat assessed as reduction of carrageenan-induced paw edema at 200 mg/kg, po administered 30 mins before carrageenan challenge measured after 1 hr by mercury displacement method relative to control
# Format: functional
# Design: scale not given: the % may be the effect or the level left
Record true (1) whenever Activity is at 9% or higher; record false (0) when lower.

>  <COMPOUND STRING>
CCCCNc1ccc2c(c1)nc(C)n2S(=O)(=O)c1ccccc1

>  <CLASS ASSIGNMENT>
false (0)

$$$$
>  <COMPOUND STRING>
Cc1nc2cc(Nc3ccccc3N)ccc2n1S(=O)(=O)c1ccccc1

>  <CLASS ASSIGNMENT>
true (1)

$$$$
>  <COMPOUND STRING>
CNc1ccc2c(c1)nc(C)n2S(=O)(=O)c1ccccc1

>  <CLASS ASSIGNMENT>
false (0)

$$$$
>  <COMPOUND STRING>
Cc1nc2cc(NCc3ccccc3Cl)ccc2n1S(=O)(=O)c1ccccc1

>  <CLASS ASSIGNMENT>
false (0)

$$$$
>  <COMPOUND STRING>
CCNc1ccc2c(c1)nc(C)n2S(=O)(=O)c1ccccc1

>  <CLASS ASSIGNMENT>
false (0)

$$$$
>  <COMPOUND STRING>
Cc1nc2cc(NCc3ccc(N)cc3)ccc2n1S(=O)(=O)c1ccccc1

>  <CLASS ASSIGNMENT>
true (1)

$$$$
>  <COMPOUND STRING>
Cc1nc2cc(Nc3ccccc3[N+](=O)[O-])ccc2n1S(=O)(=O)c1ccccc1

>  <CLASS ASSIGNMENT>
true (1)

$$$$
>  <COMPOUND STRING>
Cc1nc2cc(NCc3ccc([N+](=O)[O-])cc3)ccc2n1S(=O)(=O)c1ccccc1

>  <CLASS ASSIGNMENT>
true (1)

$$$$
>  <COMPOUND STRING>
Cc1nc2cc(Nc3ccc([N+](=O)[O-])cc3)ccc2n1S(=O)(=O)c1ccccc1

>  <CLASS ASSIGNMENT>
true (1)

$$$$
>  <COMPOUND STRING>
Cc1nc2cc(Nc3ccc(N)cc3)ccc2n1S(=O)(=O)c1ccccc1

>  <CLASS ASSIGNMENT>
true (1)

$$$$
>  <COMPOUND STRING>
CCCNc1ccc2c(c1)nc(C)n2S(=O)(=O)c1ccccc1

>  <CLASS ASSIGNMENT>
false (0)

$$$$

====

# Test system: Rattus norvegicus
# TEST PROTOCOL: Gastrointestinal toxicity in Sprague-Dawley rat assessed as lengths of longest diameters of lesions at 20 mg/kg, po after 6 hrs
# Format: organism-based
# Set-up: dose 20 mg/kg, route oral
# EXPERIMENTAL PARAMETERS: in vivo
Listed molecules paired with reported Activity

>  <MOLECULE>
Cc1nc2cc(Nc3ccccc3N)ccc2n1S(=O)(=O)c1ccccc1

>  <Activity [mm]>
14

$$$$
>  <MOLECULE>
Cc1nc2cc(Nc3ccc(N)cc3)ccc2n1S(=O)(=O)c1ccccc1

>  <Activity [mm]>
16

$$$$
>  <MOLECULE>
Cc1nc2cc(NCc3ccc(N)cc3)ccc2n1S(=O)(=O)c1ccccc1

>  <Activity [mm]>
15

$$$$
>  <MOLECULE>
COc1ccc2c(c1)c(CC(=O)O)c(C)n2C(=O)c1ccc(Cl)cc1 [INDOMETHACIN]

>  <Activity [mm]>
26

$$$$
